Cited source for all entries: patent US6469146B1

Tested on: whole blood
Experiment: Cell separation on whole blood (Polymorphprep gradient), activity in separated fractions
Format: cell-based, human
Parameters: tested at 2 mCi (74 MBq) in 3 mL blood
Conditions: fraction: erythrocytes
metric: Cell separation on whole blood (activity %): Erythrocytes
Give bare numbers, in %.

The examples below pair each entry with its known result.
compound | unit_spec | quantitative_result
S=C(CCc1ccccc1)S[S][99Tc]([S]SC(=S)CCc1ccccc1)[S]C(=S)CCc1ccccc1 [Example 29, [^99mTc(PhCH2CH2CS3)2(PhCH2CH2CS2)]] | % | 58
S=C(CCc1ccccc1)S[S][99Tc]([S]SC(=S)CCc1ccccc1)[S]C(=S)CCc1ccccc1 [Example 28, [^99mTc(PhCH2CH2CS3)2(PhCH2CH2CS2)]] | % | 16

# map each compound to its Cell separation on whole blood (activity %): Erythrocytes
1. COc1cccc(C(=S)S[S][99Tc]([S]SC(=S)c2cccc(OC)c2)[S]C(=S)c2cccc(OC)c2)c1 [Example 16, [^99mTc(3-MeOPhCS3)2(3-MeOPhCS2)]]
2. Cc1cc(C)c(C(=S)S[S][99Tc]([S]SC(=S)c2cc(C)c(C)cc2C)[S]C(=S)c2cc(C)c(C)cc2C)cc1C [Example 21]

Result:
1: 16; 2: 15

# map each compound to its Cell separation on whole blood (activity %): Erythrocytes
1. Oc1ccc(C(=S)S[S][99Tc]([S]SC(=S)c2ccc(O)cc2)[S]C(=S)c2ccc(O)cc2)cc1 [Example 17, [^99mTc(4-OHPhCS3)2(4-OHPhCS2)]]
2. CCc1ccccc1C(=S)S[S][99Tc]([S]SC(=S)c1ccccc1CC)[S]C(=S)c1ccccc1CC [Example 10, [^99mTc(2-EtPhCS3)2(2-EtPhCS2)]]
3. CCOc1ccc(C(=S)S[S][99Tc]([S]SC(=S)c2ccc(OCC)cc2)[S]C(=S)c2ccc(OCC)cc2)cc1 [Example 13, [^99mTc(4-EtOPhCS3)2(4-EtOPhCS2)]]

Result:
1: 12; 2: 22; 3: 29
